- System: GT1-7
- experiment description: Antiprion activity in human transmissible spongiform encephalopathies agent Fukuoka-1 prion infected GT1-7 cells assessed as proteinase K-resistant proteins at 10 uM after 3 days Western blotting analysis relative to control
- Type: cell-based
Label met when Activity is strictly below 40%; at or above that, label not met.

**Q:** Below 40% on Activity? Entry O=C(Cn1ccnc1)Nc1ccc(Cc2ccc(NC(=O)Cn3ccnc3)cc2)cc1
**A:** not met

**Q:** Below 40% on Activity? Entry O=C(CN1CCCCC1)Nc1ccc(Cc2ccc(NC(=O)CN3CCCC3)cc2)cc1
**A:** met

**Q:** Below 40% on Activity? Entry O=C(Nc1ccc(Cc2ccc(NC(=O)[C@@H]3CCCN3)cc2)cc1)[C@@H]1CCCN1
**A:** met

**Q:** Below 40% on Activity? Entry O=C(CN1CCCC1)Nc1ccc(Cc2ccc(NC(=O)CN3CCCC3)c(Cl)c2)cc1Cl
**A:** met

**Q:** Below 40% on Activity? Entry Nc1ccc(Cc2ccc(NC(=O)CN3CCCC3)cc2)cc1
**A:** not met
